All figures here come from patent US5210193A.

- System: Staphylococcus epidermidis IO 83-58
- assay details: in vitro antibacterial MIC, agar plate dilution
- Format: cell-based
- condition details: IO8358, 18 hours, 35° C., read-out: MIC
measured metric: MIC (µg/mL)

I. O=C(O)c1cn(-c2ccc(F)cc2)c2cc(N3CCNC(c4ccco4)C3)c(F)cc2c1=O (stereo not shown) [Example 67]
II. CCn1cc(C(=O)O)c(=O)c2cc(F)c(N3CCN(C)C(c4cc5cc(Cl)ccc5o4)C3)cc21 (stereo not shown) [Example 55]
III. CCn1cc(C(=O)O)c(=O)c2cc(F)c(N3CCNC(CF)C3)c(F)c21 (single isomer, unassigned; (-)) [Example 64]
IV. CCn1cc(C(=O)O)c(=O)c2cc(F)c(N3CCNC(c4ccsc4)C3)cc21 (stereo not shown) [Example 30]
-- ask Form: Sort by [MIC] Order [ ascending ] Write the labels, ordered according to the request.
-- reply I, III, IV, II
(I: 0.06 µg/mL, III: 0.25 µg/mL, IV: 0.5 µg/mL, II: 128 µg/mL)
